Field: IC50. Provide a value for each of the compounds that follow.
Target: Atypical chemokine receptor 3 (Homo sapiens)
Sequence (P25106 whole entry): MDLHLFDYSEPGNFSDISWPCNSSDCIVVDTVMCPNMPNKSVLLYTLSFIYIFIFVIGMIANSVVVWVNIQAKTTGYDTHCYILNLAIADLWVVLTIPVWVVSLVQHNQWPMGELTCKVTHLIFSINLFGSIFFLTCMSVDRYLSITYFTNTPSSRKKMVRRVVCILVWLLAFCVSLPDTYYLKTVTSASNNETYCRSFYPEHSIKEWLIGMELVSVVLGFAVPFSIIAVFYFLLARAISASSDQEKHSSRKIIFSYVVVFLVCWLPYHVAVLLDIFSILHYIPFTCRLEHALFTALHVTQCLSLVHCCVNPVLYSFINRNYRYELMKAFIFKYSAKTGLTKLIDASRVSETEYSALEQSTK
Test: Inhibition of [125I]SDF-1alpha binding to CXCR7 (unknown origin) expressed in CHO cell membranes incubated for 1 hr by radioligand displacement assay
Where a SMILES comes first, the peptide text is derived from it. [ ]: non-standard residue; d: D form. 2Nal = N[C@@H](Cc1ccc2ccccc2c1)C(=O)O

Compound	IC50
C[C@H]1NC(=O)[C@H](Cc2ccc3ccccc3c2)NC(=O)[C@H](CCCNC(=N)N)NC(=O)[C@H](CCCNC(=N)N)NC(=O)[C@@H](Cc2ccc(O)cc2)NC1=O (cyclo([dY]RR[2Nal][dA]))	> 30 µM
CN1C(=O)[C@H](CCCNC(=N)N)NC(=O)[C@H](CCCNC(=N)N)NC(=O)[C@@H](Cc2ccc(O)cc2)NC(=O)[C@@H]2CCCN2C(=O)[C@H]1Cc1ccc2ccccc2c1	> 30 µM
C[C@H]1NC(=O)[C@@H]2CCCN2C(=O)[C@H](Cc2ccc3ccccc3c2)NC(=O)[C@H](CCCNC(=N)N)N(C)C(=O)[C@H](CCCNC(=N)N)NC1=O	> 30 µM
N=C(N)NCCC[C@@H]1NC(=O)[C@@H](Cc2ccc(O)cc2)NC(=O)[C@@H]2CCCN2C(=O)[C@H](Cc2ccc3ccccc3c2)NC(=O)[C@@H](CCCNC(=N)N)NC1=O	> 30 µM
C[C@@H]1NC(=O)[C@@H](Cc2ccc(O)cc2)NC(=O)[C@@H]2CCCN2C(=O)[C@H](Cc2ccc3ccccc3c2)NC(=O)[C@H](CCCNC(=N)N)N(C)C1=O	16 µM

// each listed compound needs a value for IC50
1. N=C(N)NCCC[C@@H]1NC(=O)[C@H](Cc2ccc(O)cc2)NC(=O)[C@@H]2CCCN2C(=O)[C@H](Cc2ccc3ccccc3c2)NC(=O)[C@H](CCCNC(=N)N)NC1=O
2. CN1C(=O)[C@@H](Cc2ccc(O)cc2)NC(=O)[C@@H]2CCCN2C(=O)[C@H](Cc2ccc3ccccc3c2)NC(=O)[C@H](CCCNC(=N)N)NC(=O)[C@@H]1CCCNC(=N)N
3. CN1C(=O)[C@H](CCCNC(=N)N)NC(=O)[C@@H](Cc2ccc(O)cc2)NC(=O)[C@@H]2CCCN2C(=O)[C@H](Cc2ccc3ccccc3c2)NC(=O)[C@H]1CCCNC(=N)N

Solution:
> 30 µM
2.4 µM
4.6 µM
